// reported Ki for each item listed
- TESTED ON: Adenosine receptor A1 (Rattus norvegicus)
- Sequence (P25099 whole entry): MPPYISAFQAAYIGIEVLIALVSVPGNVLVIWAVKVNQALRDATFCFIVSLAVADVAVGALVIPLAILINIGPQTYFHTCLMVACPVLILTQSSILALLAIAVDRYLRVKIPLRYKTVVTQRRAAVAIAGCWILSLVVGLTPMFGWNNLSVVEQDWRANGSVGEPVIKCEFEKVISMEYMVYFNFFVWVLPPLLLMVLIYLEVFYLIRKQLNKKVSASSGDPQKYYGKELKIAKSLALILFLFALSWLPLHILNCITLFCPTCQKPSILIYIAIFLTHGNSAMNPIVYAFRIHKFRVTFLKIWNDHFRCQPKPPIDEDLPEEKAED
Note: unit nM is implicit; provide only the numeric part.

Take a look at these entries with their results.
compound="CNC(=O)Cc1ccc(NC(=O)Cc2ccc(Nc3ncnc4c3ncn4C3O[C@H](CO)[C@@H](O)[C@H]3O)cc2)cc1 (stereo partly specified)" parameter_measured=Ki unit=nM numeric_result=6.7
compound=COc1ccc(Nc2ncnc3c2ncn3[C@@H]2O[C@H](CO)[C@@H](O)[C@H]2O)cc1 parameter_measured=Ki unit=nM numeric_result=2.3

Form: compound = CCOC(=O)CNC(=O)Cc1ccc(Nc2ncnc3c2ncn3C2O[C@H](CO)[C@@H](O)[C@H]2O)cc1 (stereo partly specified) ; Ki = 15

Form: compound = OC[C@H]1O[C@@H](n2cnc3c(Nc4ccccc4)ncnc32)[C@H](O)[C@@H]1O ; Ki = 3.2

Form: compound = O=C(Cc1ccc(Nc2ncnc3c2ncn3C2O[C@H](CO)[C@@H](O)[C@H]2O)cc1)Nc1ccc(C(F)(F)F)cc1 (stereo partly specified) ; Ki = 3.3

Form: compound = Cc1ccc(Nc2ncnc3c2ncn3C2O[C@H](CO)[C@@H](O)[C@H]2O)cc1 (stereo partly specified) ; Ki = 2.5

Form: compound = O=C(O)Cc1ccc(Nc2ncnc3c2ncn3C2O[C@H](CO)[C@@H](O)[C@H]2O)cc1 (stereo partly specified) ; Ki = 210

Form: compound = Cc1cccc(NC(=O)Cc2ccc(Nc3ncnc4c3ncn4C3O[C@H](CO)[C@@H](O)[C@H]3O)cc2)c1 (stereo partly specified) ; Ki = 2

Form: compound = COC(=O)Cc1ccc(NC(=O)Cc2ccc(Nc3ncnc4c3ncn4C3O[C@H](CO)[C@@H](O)[C@H]3O)cc2)cc1 (stereo partly specified) ; Ki = 2.5

Form: compound = CNC(=O)CNC(=O)C(Cc1ccc(NC(=O)Cc2ccc(Nc3ncnc4c3ncn4C3O[C@H](CO)[C@@H](O)[C@H]3O)cc2)cc1)NC(=O)OC(C)(C)C (stereo partly specified) ; Ki = 13

Form: compound = NNC(=O)Cc1ccc(NC(=O)Cc2ccc(Nc3ncnc4c3ncn4C3O[C@H](CO)[C@@H](O)[C@H]3O)cc2)cc1 (stereo partly specified) ; Ki = 4.5
